Target: T1, His tagged human TNFR2 ECD (Acro Biosystem, TN2-H5227) (human, UniProt P20333 23-257)
T1 construct: extracellular domain; Bought protein; also called TNFR2-His; hTNFR2-His; not shown: His tag
T1 sequence (looked up): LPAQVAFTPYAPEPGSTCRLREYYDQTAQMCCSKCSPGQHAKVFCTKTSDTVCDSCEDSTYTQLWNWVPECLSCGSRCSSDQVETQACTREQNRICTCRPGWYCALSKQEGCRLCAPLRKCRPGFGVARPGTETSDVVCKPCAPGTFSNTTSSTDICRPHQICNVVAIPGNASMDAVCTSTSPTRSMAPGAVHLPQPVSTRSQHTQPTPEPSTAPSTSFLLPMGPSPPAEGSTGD
Assay: ELISA, receptor coated at 1 µg/mL, antibody titrated from 5 µg/mL
measured.metric: binding result

binder="TN36-8 (antibody, human IgG1, V domains shown, Humanized; also called AL3/AL10) VH: EVQLVESGGGLIQPGGSLRLSCAASGFSLSSSAVSWVRQAPGKGLEWIGAIGSGGTSYYSNWAKSRFTISRDNSKNTLYLQMNSLRAEDTAVYFCARDPNSSDYPYGAYGMGLWGRGTLVTVSS VL: DIQMTQSPSFLSASVGDRVTITCQVSQSISSYLSWYQQKPGKAPKLLIYYASTLASGVPSRFSGSGSGTDFTLTISSLQPEDFATYYCQQGYITSNVGNAFGGGTKVEIK" measurement=binds
binder="TN36-7 (antibody, human IgG1, V domains shown, Humanized; also called AL3/AL9) VH: EVQLVESGGGLIQPGGSLRLSCAASGFSLSSSAVSWVRQAPGKGLEWIGAIGSGGTSYYSNWAKSRFTISRDNSKNTLYLQMNSLRAEDTAVYFCARDPNSSDYPYGAYGMGLWGRGTLVTVSS VL: DIQMTQSPSSLSASVGDRVTITCQVSQSISSYLSWYQQKPGKPPKLLIYYASTLASGVPSRFSGSGSGTDFTLTISSLQPEDFATYYCQQGYITSNVGNAFGGGTKVEIK" measurement=binds
binder="TN36-9 (antibody, human IgG1, V domains shown, Humanized; also called AL3/AL11) VH: EVQLVESGGGLIQPGGSLRLSCAASGFSLSSSAVSWVRQAPGKGLEWIGAIGSGGTSYYSNWAKSRFTISRDNSKNTLYLQMNSLRAEDTAVYFCARDPNSSDYPYGAYGMGLWGRGTLVTVSS VL: DIQLTQSPSFLSASVGDRVTITCQVSQSISSYLSWYQQKPGKAPKLLIYYASTLASGVPSRFSGSGSGTEFTLTISSLQPEDFATYYCQQGYITSNVGNAFGGGTKVEIK" measurement=binds
